test: NCI Yeast Anticancer Drug Screen. Data for the mlh1 rad18 strain (AID 175); details: S. cerevisiae mlh1 rad18 strain growth inhibition; at 50.0 µM (retest, dose inferred, filed as 5.0)
The panel holds about 79,000 compounds, 15% with a hit somewhere; the sample as a whole holds those more often. Activity calls are given as the source filed them. Rule as the data show it: active = growth inhibition above about 70%; inactive = the rest.
Can you answer with just one of these options? yes (active), no (inactive)

Example results:
{"molecule": "O=[N+]([O-])C(=C(Nc1ccccc1)Nc1ccccc1)C(Cl)=C(Cl)Cl", "assigned.class": "yes"}
{"molecule": "O=C1C2=C(CCCC2)C(=O)c2ccccc21", "assigned.class": "no"}

Prompt line: What call does the record list for Cc1ccc2c(c1)C1(SC(C)C(=O)N1c1ccc(Cl)cc1)C(=O)N2CN1CCOCC1 (stereo not drawn) ?
Response line: yes

Prompt line: What call does the record list for "C=C(CSCCCCCCCCCCCC)C(=O)O" ?
Response line: yes

Prompt line: What call does the record list for CC1C(=O)C(C)C(c2ccccc2)N(C)C1c1ccccc1 (stereo not drawn) ?
Response line: yes

Prompt line: What call does the record list for COC(O)C(=O)c1ccc2c(c1)CC1(C2)Cc2cc3c(cc2C1=O)CCC3 (stereo not drawn) ?
Response line: yes

Prompt line: What call does the record list for OCCCC(Sc1ccccc1)c1ccccc1 (stereo not drawn) ?
Response line: no

Prompt line: What call does the record list for "Nc1[nH]cnc(=S)c1NC=O" ?
Response line: no

Prompt line: What call does the record list for "O=C(O)c1ccc(NCc2c(O)ccc3ccccc23)cc1" ?
Response line: no

Prompt line: What call does the record list for CCC1(CC(=O)O)OCCc2c1[nH]c1c(C)c(Cl)ccc21 (stereo not drawn) ?
Response line: yes

Prompt line: What call does the record list for "COc1cc2c(Cc3ccc(OC)c(OC)c3)[n+](Cc3ccccc3)ccc2cc1NCc1ccccc1" ?
Response line: yes
